Tested on: K562
Assay info: Antiproliferative activity against human K562 cells assessed as cell viability after 72 hrs by CellTitre-Glo luminescent assay
Type: functional, cell-based
Run conditions: Homo sapiens, K562, 72 h
Property name: IC50 (nM)

> print(dat)
                                   compound  reported.value
1  O=C(/C=C/c1ccc2c(c1)C(=O)CC1(CCCN(Cc3ccc(F)cc3)C1)O2)NO (racemic)             552

[A] O=C(/C=C/c1ccc2c(c1)C(=O)CC1(CN(Cc3ccccc3)C1)O2)NO
[B] O=C(/C=C/c1ccc2c(c1)C(=O)CC1(CCN(CCc3ccccc3)C1)O2)NO (racemic)
[C] CCOC(=O)N1CCC2(CC(=O)c3cc(/C=C/C(=O)NO)ccc3O2)C1 (racemic)
[D] O=C(/C=C/c1ccc2c(c1)C(=O)CC1(CCNC1)O2)NO (racemic)
Descending sort on IC50 required. Reply with the labels, ordered as the question asks.
D, C, A, B

====

Study system: Histone deacetylase
Assay info: Inhibition of HDAC in human HeLa cells nuclear extract using Fluor de lys as substrate after 15 mins by fluorometric analysis
Type: cell-based
Property name: IC50 (nM)

[a] CC(=O)N1CCC2(CC(=O)c3cc(/C=C/C(=O)NO)ccc3O2)C1 (racemic)
[b] O=C(/C=C/c1ccc2c(c1)C(=O)CC1(CNC1)O2)NO
For a and b , which recorded IC50 is lower? Write down the label attached to your selection.
b
(b: 228 nM, a: 955 nM)

[1] O=C(/C=C/c1ccc2c(c1)C(=O)CC1(CN(Cc3ccc(F)cc3)C1)O2)NO
[2] CC(=O)N1CCCC2(CC(=O)c3cc(/C=C/C(=O)NO)ccc3O2)C1 (racemic)
// returns 1 or 2 , whichever has the lower IC50 Indicate which entry you chose by stating its label.
1

====

Study system: Histone deacetylase
Assay info: Inhibition of HDAC in human HeLa cells nuclear extract using Fluor de lys as substrate after 15 mins by fluorometric analysis
Format: cell-based
Property name: IC50 (nM)

> print(dat)
                                   compound  reported.value
1  O=C(/C=C/c1ccc2c(c1)C(=O)CC1(CCN(Cc3ccccc3)C1)O2)NO (racemic)              52

[P] O=C(/C=C/c1ccc2c(c1)C(=O)CC1(CCCN(CCc3ccccc3)CC1)O2)NO (racemic)
[Q] CN1CCC2(CC(=O)c3cc(/C=C/C(=O)NO)ccc3O2)C1 (racemic)
Compare the recorded IC50 of P and Q ; state which is larger. Select an item and report its label.
Q

[1] CCOC(=O)N1CC2(CC(=O)c3cc(/C=C/C(=O)NO)ccc3O2)C1
[2] O=C(/C=C/c1ccc2c(c1)C(=O)CC1(CCCN(Cc3ccc(F)cc3)CC1)O2)NO (racemic)
// max by IC50 over [ 1 , 2 ] # answer = label of selected item
1

[P] CC(=O)N1CCCC2(CC1)CC(=O)c1cc(/C=C/C(=O)NO)ccc1O2 (racemic)
[Q] O=C(/C=C/c1ccc2c(c1)C(=O)CC1(CCCN(Cc3ccccc3)CC1)O2)NO (racemic)
[R] O=C(/C=C/c1ccc2c(c1)C(=O)CC1(CCCN(Cc3ccccc3)C1)O2)NO (stereo in doubt; 33j)
Rank order required: IC50, descending. The response must list the labels following the requested ordering.
P, R, Q
(P: 323 nM, R: 143 nM, Q: 73 nM)

====

Study system: Protein deacetylase HDAC6 (Homo sapiens, UniProt Q9UBN7)
Sequence (Q9UBN7 whole entry): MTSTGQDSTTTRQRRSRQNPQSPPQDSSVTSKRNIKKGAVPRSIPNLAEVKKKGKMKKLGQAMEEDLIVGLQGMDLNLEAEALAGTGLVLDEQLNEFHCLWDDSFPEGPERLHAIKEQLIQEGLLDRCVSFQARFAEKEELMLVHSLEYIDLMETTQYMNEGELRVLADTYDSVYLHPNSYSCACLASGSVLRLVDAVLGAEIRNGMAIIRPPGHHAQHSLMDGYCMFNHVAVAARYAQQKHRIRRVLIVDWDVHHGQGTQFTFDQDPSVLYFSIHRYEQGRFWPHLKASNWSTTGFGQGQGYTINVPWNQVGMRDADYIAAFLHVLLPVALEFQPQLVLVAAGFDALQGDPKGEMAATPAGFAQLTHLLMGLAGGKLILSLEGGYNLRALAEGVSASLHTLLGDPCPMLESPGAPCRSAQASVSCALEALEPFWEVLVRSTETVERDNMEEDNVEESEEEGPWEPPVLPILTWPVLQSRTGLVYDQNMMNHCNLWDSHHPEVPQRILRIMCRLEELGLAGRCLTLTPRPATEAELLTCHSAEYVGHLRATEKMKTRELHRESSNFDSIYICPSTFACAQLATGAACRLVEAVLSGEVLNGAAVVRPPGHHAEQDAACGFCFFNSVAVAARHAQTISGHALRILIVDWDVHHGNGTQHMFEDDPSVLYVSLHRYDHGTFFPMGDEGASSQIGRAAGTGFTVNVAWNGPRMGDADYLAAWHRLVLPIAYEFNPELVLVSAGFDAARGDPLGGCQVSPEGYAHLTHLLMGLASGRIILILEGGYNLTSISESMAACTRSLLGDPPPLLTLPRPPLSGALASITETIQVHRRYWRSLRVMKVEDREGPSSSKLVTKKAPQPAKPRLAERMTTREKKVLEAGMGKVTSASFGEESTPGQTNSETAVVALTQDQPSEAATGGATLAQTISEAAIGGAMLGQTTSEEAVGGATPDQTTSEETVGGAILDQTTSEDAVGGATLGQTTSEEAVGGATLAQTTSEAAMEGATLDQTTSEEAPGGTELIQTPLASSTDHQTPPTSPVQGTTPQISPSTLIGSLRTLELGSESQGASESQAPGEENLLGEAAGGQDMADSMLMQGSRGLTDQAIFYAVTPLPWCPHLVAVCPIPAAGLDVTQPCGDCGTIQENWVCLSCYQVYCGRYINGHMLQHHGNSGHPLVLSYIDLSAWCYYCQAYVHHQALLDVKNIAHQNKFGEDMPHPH
Assay info: Inhibition of recombinant human HDAC6 after 15 mins by fluorescence assay
Property name: IC50 (nM)
# output: bare number, implied unit nM

State IC50 (Protein deacetylase HDAC6 (Homo sapiens, UniProt Q9UBN7)) of O=C(/C=C/c1ccc2c(c1)C(=O)CC1(CCN(CCc3ccccc3)CC1)O2)NO .
138

====

Assay info: Metabolic stability in human liver microsomes assessed as compound remaining at 1 uM preincubated for 10 mins measured after 30 mins by LC-MS/MS analysis
Format: ADME
Run conditions: liver microsomes, read-out: Stability
Property name: remaining at 0.5 h, 1 µM (%)

Solved entries (count: 2):
> print(dat)
                                   molecule  reported.value
1  CN1CCCC2(CC(=O)c3cc(/C=C/C(=O)NO)ccc3O2)C1 (racemic)              42
2  O=C(/C=C/c1ccc2c(c1)C(=O)CC1(CCCN(CCc3ccccc3)C1)O2)NO (racemic)              16

[1] O=C(/C=C/c1ccc2c(c1)C(=O)CC1(CCN(Cc3ccc(F)cc3)CC1)O2)NO
[2] Cn1cc(CN2CCC3(CC(=O)c4cc(/C=C/C(=O)NO)ccc4O3)C2)c2ccccc21 (racemic)
[3] O=C(/C=C/c1ccc2c(c1)C(=O)CC1(CCN(CCc3ccccc3)C1)O2)NO (racemic)
# sort list by recorded remaining at 0.5 h, 1 µM, greatest to least List the labels according to the requested ordering.
1, 3, 2
(1: 63%, 3: 31%, 2: 16%)

====

System: K562
Assay info: Antiproliferative activity against human K562 cells assessed as cell viability after 72 hrs by CellTitre-Glo luminescent assay
Type: functional, cell-based
Run conditions: Homo sapiens, K562, 72 h
Property name: IC50 (nM)

Completed entries (count: 2):
> print(dat)
                                   compound  property.name  reported.value
1  CN1CCCC2(CC(=O)c3cc(/C=C/C(=O)NO)ccc3O2)C1 (racemic)           IC50              56
2  Cn1cc(CN2CCCC3(CC2)CC(=O)c2cc(/C=C/C(=O)NO)ccc2O3)c2ccccc21 (racemic)           IC50              46

[A] Cn1cc(CN2CCC3(CC(=O)c4cc(/C=C/C(=O)NO)ccc4O3)C2)c2ccccc21 (racemic)
[B] CC(=O)N1CCCC2(CC(=O)c3cc(/C=C/C(=O)NO)ccc3O2)C1 (racemic)
[C] O=C(/C=C/c1ccc2c(c1)C(=O)CC1(CNC1)O2)NO
[D] O=C(/C=C/c1ccc2c(c1)C(=O)CC1(CCCNC1)O2)NO (racemic)
Ranking field: IC50; order: falling. # format: label list in the order the request specifies
B, C, D, A

====

Study system: CYP2C19 (Homo sapiens, UniProt P33261)
Sequence (P33261 whole entry): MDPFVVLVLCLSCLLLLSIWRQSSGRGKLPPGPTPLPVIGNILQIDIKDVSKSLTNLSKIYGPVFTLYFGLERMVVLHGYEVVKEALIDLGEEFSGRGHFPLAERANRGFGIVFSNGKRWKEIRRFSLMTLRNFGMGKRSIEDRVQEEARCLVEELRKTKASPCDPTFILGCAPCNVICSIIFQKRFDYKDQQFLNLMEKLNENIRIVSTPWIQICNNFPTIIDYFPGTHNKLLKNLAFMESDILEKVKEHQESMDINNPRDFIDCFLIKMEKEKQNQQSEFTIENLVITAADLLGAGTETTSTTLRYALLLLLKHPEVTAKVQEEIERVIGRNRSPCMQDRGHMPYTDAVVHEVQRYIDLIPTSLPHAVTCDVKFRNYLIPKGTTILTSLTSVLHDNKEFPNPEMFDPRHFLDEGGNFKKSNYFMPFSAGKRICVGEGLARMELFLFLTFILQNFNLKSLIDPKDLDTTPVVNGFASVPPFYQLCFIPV
Assay info: Inhibition of human CYP2C19 using 3-cyano-7-ethoxycoumarin as substrate at 10 uM after 30 mins by fluorimetric analysis
Type: ADME
Run conditions: probe 3-cyano-7-ethoxycoumarin
Property name: inhibition at 0.5 h, 10 µM (%)

> print(dat)
                                   compound               property.name  reported.value
1  O=C(/C=C/c1ccc2c(c1)C(=O)CC1(CN(Cc3ccccc3)C1)O2)NO  inhibition at 0.5 h, 10 µM              40
2  O=C(/C=C/c1ccc2c(c1)C(=O)CC1(CCN(Cc3ccccc3)C1)O2)NO (racemic)  inhibition at 0.5 h, 10 µM              39
3  CN1CCCC2(CC(=O)c3cc(/C=C/C(=O)NO)ccc3O2)C1 (racemic)  inhibition at 0.5 h, 10 µM              12

[I] O=C(/C=C/c1ccc2c(c1)C(=O)CC1(CCN(Cc3ccc(F)cc3)CC1)O2)NO
[II] O=C(/C=C/c1ccc2c(c1)C(=O)CC1(CCN(CCc3ccccc3)CC1)O2)NO
Endpoint returns the identifier whose inhibition at 0.5 h, 10 µM is numerically larger, either I or II . Return value: the label identifying the chosen record.
I
(I: 61%, II: 42%)

[I] O=C(/C=C/c1ccc2c(c1)C(=O)CC1(CCCN(CCc3ccccc3)CC1)O2)NO (racemic)
[II] CN1CCCC2(CC1)CC(=O)c1cc(/C=C/C(=O)NO)ccc1O2 (racemic)
Hi there, can you help? I need to know whether I or II has lower measured inhibition at 0.5 h, 10 µM. Answer with the label corresponding to your selection.
II
(II: 9%, I: 81%)
